Tested on: ChaGo-K-1
Assay: relative viability (nuclei count vs DMSO), 5 days (fraction); higher = more cells survive
Conditions: first compound 0.002 µM
Some compounds, each annotated with its measured relative viability.
// return a plain number; no unit text

>>> experimental_value("CC(=O)O[C@@]12CO[C@@H]1C[C@H](O)[C@@]1(C)C(=O)[C@H](O)C3=C(C)[C@@H](OC(=O)[C@H](O)[C@@H](NC(=O)OC(C)(C)C)c4ccccc4)C[C@@](O)([C@@H](OC(=O)c4ccccc4)[C@H]21)C3(C)C [Docetaxel] + O=C(CCCCCCC(=O)Nc1ccccc1)NO [Vorinostat] (partner 1 µM)")
0.335

query: Query: relative viability; subject: CC(=O)O[C@@]12CO[C@@H]1C[C@H](O)[C@@]1(C)C(=O)[C@H](O)C3=C(C)[C@@H](OC(=O)[C@H](O)[C@@H](NC(=O)OC(C)(C)C)c4ccccc4)C[C@@](O)([C@@H](OC(=O)c4ccccc4)[C@H]21)C3(C)C [Docetaxel] + C[C@@H](Oc1cc(-c2cnn(C3CCNCC3)c2)cnc1N)c1c(Cl)ccc(F)c1Cl [Crizotinib] (partner 1 µM)
result: 0.457

query: Query: relative viability; subject: CC(=O)O[C@@]12CO[C@@H]1C[C@H](O)[C@@]1(C)C(=O)[C@H](O)C3=C(C)[C@@H](OC(=O)[C@H](O)[C@@H](NC(=O)OC(C)(C)C)c4ccccc4)C[C@@](O)([C@@H](OC(=O)c4ccccc4)[C@H]21)C3(C)C [Docetaxel] + CC(C)C[C@H](NC(=O)[C@H](Cc1ccccc1)NC(=O)c1cnccn1)B(O)O [Bortezomib] (partner 0.002 µM)
result: 0.487

---

Tested on: NCI-H2347
Test: relative viability (nuclei count vs DMSO), 5 days (fraction); higher = more cells survive
Details: first compound 0.8 µM
measurement_name: relative viability
// return a plain number; no unit text

>>> experimental_value("O=c1[nH]c2ccccc2n1C1CCN(CCCC(c2ccc(F)cc2)c2ccc(F)cc2)CC1 [Pimozide] + C[C@@H](Oc1cc(-c2cnn(C3CCNCC3)c2)cnc1N)c1c(Cl)ccc(F)c1Cl [Crizotinib] (partner 1 µM)")
0.545
>>> experimental_value("O=c1[nH]c2ccccc2n1C1CCN(CCCC(c2ccc(F)cc2)c2ccc(F)cc2)CC1 [Pimozide] + N=C(N)NC(=N)NCCc1ccccc1 [Phenformin] (partner 250 µM)")
0.374
>>> experimental_value("Cc1cnc(-c2cnc(NCCNc3ccc(C#N)cn3)nc2-c2ccc(Cl)cc2Cl)[nH]1 + C[C@]1(O)C[C@@H](c2nc(-c3ccc4ccc(-c5ccccc5)nc4c3)c3c(N)nccn32)C1 [Linsitinib] (partner 1 µM)")
1
>>> experimental_value("O=c1[nH]c2ccccc2n1C1CCN(CCCC(c2ccc(F)cc2)c2ccc(F)cc2)CC1 [Pimozide] + CC1(C)CCC(c2ccc(Cl)cc2)=C(CN2CCN(c3ccc(C(=O)NS(=O)(=O)c4ccc(N[C@H](CCN5CCOCC5)CSc5ccccc5)c(S(=O)(=O)C(F)(F)F)c4)cc3)CC2)C1 [Navitoclax] (partner 0.5 µM)")
0.73

query: Which measured relative viability belongs to Cc1cnc(-c2cnc(NCCNc3ccc(C#N)cn3)nc2-c2ccc(Cl)cc2Cl)[nH]1 + CS(=O)(=O)N1CCN(Cc2cc3nc(-c4cccc5[nH]ncc45)nc(N4CCOCC4)c3s2)CC1 [Pictilisib] (partner 1 µM) , tested on NCI-H2347?
result: 0.698
